test: Rat 28-day GLP repeat dose PO study (toxicokinetics); assay type: in vivo; conditions: male, rat, in vivo, po, 1000 mg/kg, Day 28, M, 1000 mg/kg PO
Where a name gives a salt, the structure may show the parent alone.
metric: AUC(0-inf)
Report field: quantity (unit follows the number).

Which value of AUC(0-inf) has been reported for CC1(C)SC(Nc2ccccc2O)=N[C@@H]1C(=O)O [Compound 1, mono-hydrochloride] in the records?
337 µg·h/mL

###

assay: Rat 28-day GLP repeat dose PO study (toxicokinetics); type: in vivo; conditions: male, rat, in vivo, po, 1000 mg/kg, Day 1, M, 1000 mg/kg PO; read-out: Cmax
Where a name gives a salt, the structure may show the parent alone.
metric: Cmax (µg/mL)
Answer in µg/mL, number only, no unit symbol.

Look up Cmax for this compound: CC1(C)SC(Nc2ccccc2O)=N[C@@H]1C(=O)O [Compound 1, mono-hydrochloride]
52.7

###

assay: Dog 28-day repeat dose PO study; type: in vivo; settings: male, beagle, dog, in vivo, po, 400 mg/kg, Day 15, 400 mg/kg PO, M; read-out: Cmax
Structures can show the parent of a compound that is named as a salt.
metric: Cmax (µg/mL)
Please state the figure in µg/mL; there is no need to write the unit.

Bench note: what Cmax did CC1(C)SC(Nc2ccccc2O)=N[C@@H]1C(=O)O [Compound 1, mono-hydrochloride] show?
112

###

assay: Dog 7-day repeat dose PO study; assay type: in vivo; settings: female, plasma, 350 mg/kg, Day 1, 350 mg/kg PO, F, N = 1
Structures can show the parent of a compound that is named as a salt.
metric: AUC(0-t) (µg·h/mL)
# unit: µg·h/mL | format: bare number

Recorded AUC(0-t) of CC1(C)SC(Nc2ccccc2O)=N[C@@H]1C(=O)O [Compound 1, mono-hydrochloride] , please.
834

###

experiment: Rat 28-day GLP repeat dose PO study (toxicokinetics); format: in vivo; conditions: male, rat, in vivo, po, 2000 mg/kg, Day 28, M, 2000 mg/kg PO; read-out: Cmax
Counter-ions that a name gives are not always drawn.
metric: Cmax (µg/mL)
Write the answer as a number in µg/mL, unit excluded.

What Cmax value was documented for this compound, CC1(C)SC(Nc2ccccc2O)=N[C@@H]1C(=O)O [Compound 1, mono-hydrochloride] ?
83.6

###

experiment: Rat 28-day GLP repeat dose PO study (toxicokinetics); assay type: in vivo; settings: male, rat, in vivo, po, 1000 mg/kg, Day 28, M, 1000 mg/kg PO; read-out: CL/F (CLss/F) (converted)
Structures can show the parent of a compound that is named as a salt.
metric: CL/F (mL/min/kg)
Please give a number only; it is taken to be in mL/min/kg.

Give the measured CL/F of CC1(C)SC(Nc2ccccc2O)=N[C@@H]1C(=O)O [Compound 1, mono-hydrochloride] .
49.8

###

target: MATE (Homo sapiens); construct: expressed in transfected cells; host or cells: HEK293 cells; assay: Inhibition of uptake (SLC) transporters; assay type: in vitro ADME; conditions: MATE2-K; HEK293 cells, probe [14C]-metformin (10 μM), pH 8.5, 0.3-600 μM tested
Sequence (Q86VL8 1-566 isoform Q86VL8-3): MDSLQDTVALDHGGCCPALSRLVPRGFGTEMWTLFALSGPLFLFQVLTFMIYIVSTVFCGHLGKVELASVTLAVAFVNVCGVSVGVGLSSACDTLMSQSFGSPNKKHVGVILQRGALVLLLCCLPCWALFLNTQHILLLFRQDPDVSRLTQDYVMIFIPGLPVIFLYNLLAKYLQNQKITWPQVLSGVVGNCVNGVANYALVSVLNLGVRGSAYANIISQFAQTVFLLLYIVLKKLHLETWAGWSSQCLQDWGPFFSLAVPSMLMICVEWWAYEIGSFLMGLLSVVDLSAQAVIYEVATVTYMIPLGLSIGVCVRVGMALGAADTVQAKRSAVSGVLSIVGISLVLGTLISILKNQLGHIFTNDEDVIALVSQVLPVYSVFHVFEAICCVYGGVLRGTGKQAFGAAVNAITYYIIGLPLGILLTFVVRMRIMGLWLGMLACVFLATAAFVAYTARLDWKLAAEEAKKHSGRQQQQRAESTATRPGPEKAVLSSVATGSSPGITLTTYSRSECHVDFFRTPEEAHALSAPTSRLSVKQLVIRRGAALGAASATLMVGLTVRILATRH
Where a name gives a salt, the structure may show the parent alone.
metric: IC50

Request body: readout IC50, system MATE (Homo sapiens), query CC1(C)SC(Nc2ccccc2O)=N[C@@H]1C(=O)O [Compound 1, mono-hydrochloride] . Return the value.
> 600 µM

###

experiment: Rat 28-day GLP repeat dose PO study (toxicokinetics); type: in vivo; conditions: male, rat, in vivo, po, 1000 mg/kg, Day 14, M, 1000 mg/kg PO; read-out: t1/2 (converted)
Counter-ions that a name gives are not always drawn.
metric: half-life (min)
# output: bare number, implied unit min

Can you share its half-life? I mean this molecule: CC1(C)SC(Nc2ccccc2O)=N[C@@H]1C(=O)O [Compound 1, mono-hydrochloride]
221

###

test: Rat pharmacokinetics after single PO dose; conditions: male, Sprague Dawley, rat, plasma, po, 100 mg/kg
Where a name gives a salt, the structure may show the parent alone.
metric: concentration at 0.5 h
For clarity, give the value followed by its unit.

May I ask what concentration at 0.5 h has been recorded for CC1(C)SC(Nc2ccccc2O)=N[C@@H]1C(=O)O [Compound 1, mono-hydrochloride] ?
13.5 µg/mL

###

assay: Rat 28-day GLP repeat dose PO study (toxicokinetics); format: in vivo; details: female, rat, in vivo, po, 50 mg/kg, Day 1, F, 50 mg/kg PO; read-out: Cmax
Where a name gives a salt, the structure may show the parent alone.
metric: Cmax (µg/mL)
Write down the numeric answer in µg/mL and omit the unit.

# get_value(readout='Cmax', item= CC1(C)SC(Nc2ccccc2O)=N[C@@H]1C(=O)O [Compound 1, mono-hydrochloride] )
74.8

###

test: Dog 7-day repeat dose PO study; assay type: in vivo; conditions: male, plasma, 400 mg/kg, Day 1, 400 mg/kg PO, M, N = 1
Where a name gives a salt, the structure may show the parent alone.
metric: AUC(0-t) (µg·h/mL)
Supply the numeric figure in µg·h/mL, leaving out any unit text.

Fill blank: measured AUC(0-t) of the compound CC1(C)SC(Nc2ccccc2O)=N[C@@H]1C(=O)O [Compound 1, mono-hydrochloride] is ____.
657

###

test: in vivo; conditions: male, Sprague Dawley, rat, po, 100 mg/kg, Compound 1 Concentration in rat plasma, 100 mg/kg single PO, 8 h post-dose, individual animals
Where a name gives a salt, the structure may show the parent alone.
metric: concentration at 8 h (ng/mL)
Please state the figure in ng/mL; there is no need to write the unit.

Which concentration at 8 h value is on record for CC1(C)SC(Nc2ccccc2O)=N[C@@H]1C(=O)O [Compound 1, mono-hydrochloride] ?
1610

###

Test: Rat 28-day GLP repeat dose PO study (toxicokinetics)
Assay type: in vivo
Settings: male, rat, in vivo, po, 500 mg/kg, Day 1, M, 500 mg/kg PO
Procedure: The vehicle was 0.5% HPMC. There were 15 rats/sex in the control and high dose groups (5/sex for a 14-day recovery period) while the low and mid doses consisted of 10 rats/sex. Satellite groups of rats/sex/group for toxicokinetics were included. Rats in Group 1 (Vehicle Control) were bled once at approximately 1 hour post-dose on those days.
Structures can show the parent of a compound that is named as a salt.
metric: AUC
Put your answer as a value accompanied by its unit after it.

Dear colleague, I am looking for the recorded AUC of the following compound: CC1(C)SC(Nc2ccccc2O)=N[C@@H]1C(=O)O [Compound 1, mono-hydrochloride]
270 µg·h/mL

###

assay: Rat 28-day GLP repeat dose PO study (toxicokinetics); type: in vivo; settings: female, rat, in vivo, po, 500 mg/kg, Day 28, F, 500 mg/kg PO; read-out: Cmax
Counter-ions that a name gives are not always drawn.
metric: Cmax (µg/mL)
Write the answer as a number in µg/mL, unit excluded.

Report Cmax for CC1(C)SC(Nc2ccccc2O)=N[C@@H]1C(=O)O [Compound 1, mono-hydrochloride] please.
86.4

###

assay: Rat 28-day GLP repeat dose PO study (toxicokinetics); assay type: in vivo; details: female, rat, in vivo, po, 500 mg/kg, Day 28, F, 500 mg/kg PO; read-out: t1/2 (converted)
Structures can show the parent of a compound that is named as a salt.
metric: half-life (h)
Kindly answer with a numeric value in h, unit omitted.

What does the record list as half-life for CC1(C)SC(Nc2ccccc2O)=N[C@@H]1C(=O)O [Compound 1, mono-hydrochloride] ?
4.62

###

molecular target: CYP3A4 (Homo sapiens); construct: tissue BD Gentest; host or cells: human liver microsomes; assay: CYP inhibition in human liver microsomes; assay type: in vitro ADME; settings: human liver microsomes, known substrate of the CYP isoform; read-out: IC50 (μM) CYP 3A4
Sequence (P08684 whole entry, canonical isoform): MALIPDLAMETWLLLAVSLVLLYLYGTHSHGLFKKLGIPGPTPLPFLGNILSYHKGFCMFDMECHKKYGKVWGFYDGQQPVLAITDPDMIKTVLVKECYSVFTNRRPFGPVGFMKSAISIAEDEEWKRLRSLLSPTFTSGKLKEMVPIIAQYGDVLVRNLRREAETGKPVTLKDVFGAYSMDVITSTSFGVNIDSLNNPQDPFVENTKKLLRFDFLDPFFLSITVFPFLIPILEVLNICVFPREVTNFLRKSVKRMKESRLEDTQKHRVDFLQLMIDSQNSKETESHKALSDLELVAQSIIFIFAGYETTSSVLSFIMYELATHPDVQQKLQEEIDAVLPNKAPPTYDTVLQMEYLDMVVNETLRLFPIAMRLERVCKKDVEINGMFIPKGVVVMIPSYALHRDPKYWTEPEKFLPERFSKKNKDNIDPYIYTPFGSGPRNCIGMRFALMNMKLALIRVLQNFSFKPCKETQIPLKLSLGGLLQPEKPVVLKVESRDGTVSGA
Structures can show the parent of a compound that is named as a salt.
metric: IC50

What is its IC50 for CYP3A4 (Homo sapiens)? Entry: CC1(C)SC(Nc2ccccc2O)=N[C@@H]1C(=O)O [Compound 1, mono-hydrochloride]
> 100 µM

###

experiment: Dog single oral dose MTD study; type: in vivo; conditions: male, dog, plasma; 350 mg/kg PO (Dose 3; Day 9), 0.5 h, M, N = 2; read-out: Average Compound 1 Concentration in dog plasma
Counter-ions that a name gives are not always drawn.
metric: concentration at 0.5 h (µg/mL)
Please give a number only; it is taken to be in µg/mL.

Given the compound CC1(C)SC(Nc2ccccc2O)=N[C@@H]1C(=O)O [Compound 1, mono-hydrochloride] , what is its reported concentration at 0.5 h?
134

###

experiment: Rat 28-day GLP repeat dose PO study (toxicokinetics); type: in vivo; settings: female, rat, in vivo, po, 2000 mg/kg, Day 28, F, 2000 mg/kg PO
Counter-ions that a name gives are not always drawn.
metric: AUC(0-inf) (µg·h/mL)
Write the value in µg·h/mL as a bare number.

Any idea what AUC(0-inf) was measured for CC1(C)SC(Nc2ccccc2O)=N[C@@H]1C(=O)O [Compound 1, mono-hydrochloride] ?
1330
